The reported numbers originate from patent US20210238260.

# target_under_test: plasma purified human antithrombin III (AT-III), as complex with unfractionated heparin
# test_details: ratio of K0.5 (lower limit) to Catalyst Biosciences WT FIXa, AT-III/UFH inhibition
metric_name: K0.5-mut/K0.5-wt
Give your answer as a number; write no unit.

Looking for the measured K0.5-mut/K0.5-wt of FIXa-N260S/R318Y/R338E/R403E/E410N (protein) chain 1: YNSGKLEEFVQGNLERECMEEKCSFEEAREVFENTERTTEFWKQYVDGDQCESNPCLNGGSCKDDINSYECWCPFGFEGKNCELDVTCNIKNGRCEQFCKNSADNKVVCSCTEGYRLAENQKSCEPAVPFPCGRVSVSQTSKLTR chain 2: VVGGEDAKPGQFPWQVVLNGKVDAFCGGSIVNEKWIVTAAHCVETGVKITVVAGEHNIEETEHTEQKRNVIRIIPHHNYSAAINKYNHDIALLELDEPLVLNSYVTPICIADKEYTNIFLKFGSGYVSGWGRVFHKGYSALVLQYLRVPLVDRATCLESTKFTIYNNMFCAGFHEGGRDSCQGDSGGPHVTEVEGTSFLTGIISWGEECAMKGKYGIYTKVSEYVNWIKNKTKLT , can you help?
517

Follow-up entry: FIXa-R318Y/R338E/R403E/E410S (protein) chain 1: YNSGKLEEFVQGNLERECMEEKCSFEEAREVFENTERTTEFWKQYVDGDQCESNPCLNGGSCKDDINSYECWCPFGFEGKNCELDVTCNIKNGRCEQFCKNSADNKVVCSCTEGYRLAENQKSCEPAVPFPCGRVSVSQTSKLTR chain 2: VVGGEDAKPGQFPWQVVLNGKVDAFCGGSIVNEKWIVTAAHCVETGVKITVVAGEHNIEETEHTEQKRNVIRIIPHHNYNAAINKYNHDIALLELDEPLVLNSYVTPICIADKEYTNIFLKFGSGYVSGWGRVFHKGYSALVLQYLRVPLVDRATCLESTKFTIYNNMFCAGFHEGGRDSCQGDSGGPHVTEVEGTSFLTGIISWGEECAMKGKYGIYTKVSEYVNWIKSKTKLT
517
